Molecular target: T1, human Trop-2-hFc (Homo sapiens, UniProt P09758)
T1 construct: Monomeric Trop-2 extracellular domain prepared from papain digestion of Trop-2-Fc fusion protein
T1 sequence (P09758 27-274 limits assumed): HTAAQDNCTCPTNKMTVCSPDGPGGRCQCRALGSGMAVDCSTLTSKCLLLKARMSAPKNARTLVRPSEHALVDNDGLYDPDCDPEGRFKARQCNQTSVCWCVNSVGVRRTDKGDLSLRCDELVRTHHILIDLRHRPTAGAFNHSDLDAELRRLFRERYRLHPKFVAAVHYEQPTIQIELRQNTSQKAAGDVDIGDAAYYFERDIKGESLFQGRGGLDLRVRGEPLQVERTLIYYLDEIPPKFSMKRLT
Experiment: Biacore SPR affinity of chimeric and humanized 7E6 Fab, human Trop-2
Assay type: binding
Settings: recombinant Fab fragments injected over captured human Trop-2-hFc
outcomeMeasure: kd (s⁻¹)
Answer format: numeric, s⁻¹ implied, no suffix.

>  <molecule>
h7E6_SVG: humanized anti-Trop-2 antibody, VL SEQ ID NO: 3, VH SEQ ID NO: 5 (antibody, V domains shown) VH: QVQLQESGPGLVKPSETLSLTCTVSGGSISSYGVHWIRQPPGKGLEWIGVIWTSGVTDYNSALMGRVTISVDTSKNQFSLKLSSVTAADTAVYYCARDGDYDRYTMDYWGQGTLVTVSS VL: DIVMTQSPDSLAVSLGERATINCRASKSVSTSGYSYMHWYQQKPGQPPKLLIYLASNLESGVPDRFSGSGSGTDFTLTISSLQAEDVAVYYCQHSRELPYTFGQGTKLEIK

>  <kd (s⁻¹)>
0.000435

$$$$

Q: Need kd, item h7E6: humanized anti-Trop-2 antibody, VL SEQ ID NO: 3, VH SEQ ID NO: 4 (antibody, V domains shown) VH: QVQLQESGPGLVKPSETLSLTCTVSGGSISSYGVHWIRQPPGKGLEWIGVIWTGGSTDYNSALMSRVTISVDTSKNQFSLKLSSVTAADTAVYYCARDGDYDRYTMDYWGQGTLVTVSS VL: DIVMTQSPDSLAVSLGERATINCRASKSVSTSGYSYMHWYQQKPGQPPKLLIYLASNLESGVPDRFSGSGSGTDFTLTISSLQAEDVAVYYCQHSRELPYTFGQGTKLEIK
Result: 0.00294

Numbers sourced from patent US10100114B2.
